Reference source for all entries: patent US9969749B2

target: UniProt Q9NWZ3; test: IRAK4 Kinase Assay (IMAP fluorescence polarization); format: biochemical; conditions: 0.5 nM GST tagged IRAK4, 100 μM ATP, 100 nM fluorescent peptide substrate RP7030, 30 minutes at 25° C.
Sequence (Q9NWZ3 whole entry): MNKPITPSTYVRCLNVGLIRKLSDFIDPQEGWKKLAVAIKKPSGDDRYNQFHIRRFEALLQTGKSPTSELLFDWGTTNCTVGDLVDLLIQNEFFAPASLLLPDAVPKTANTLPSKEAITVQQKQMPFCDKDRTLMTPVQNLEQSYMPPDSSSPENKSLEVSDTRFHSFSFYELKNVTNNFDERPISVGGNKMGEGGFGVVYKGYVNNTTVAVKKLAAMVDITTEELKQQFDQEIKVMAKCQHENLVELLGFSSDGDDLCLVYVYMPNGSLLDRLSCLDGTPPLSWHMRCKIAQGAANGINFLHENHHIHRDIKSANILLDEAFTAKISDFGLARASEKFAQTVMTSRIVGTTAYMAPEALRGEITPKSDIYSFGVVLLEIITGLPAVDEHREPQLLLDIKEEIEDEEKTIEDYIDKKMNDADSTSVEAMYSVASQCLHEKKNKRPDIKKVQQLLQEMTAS
assay_endpoint: IC50 (nM)

Cn1nncc1-c1ccc2ncnc(N[C@H]3CC[C@H](N4CCOCC4)CC3)c2c1	152

(a) CN(C)[C@H]1CC[C@H](Nc2ncnc3ccc(-c4ccc5c(c4)OCCO5)cc23)CC1
(b) N#Cc1n[nH]cc1-c1ccc2ncnc(N[C@H]3CC[C@H](N4CCOCC4)CC3)c2c1
*Q* I need your help: which of the pair a , b has higher IC50? Provide the label of your selected option as the answer.
*A* a

(P) C[C@H]1CN([C@H]2CC[C@H](Nc3ncnc4ccc(-c5cnc(F)c(N)c5)cc34)CC2)CCO1
(Q) c1cc(-c2ccc3ncnc(N[C@H]4CC[C@H](N5CCOCC5)CC4)c3c2)c2cc[nH]c2c1
*Q* Pick one: P or Q . Which one has the lower reported IC50? Provide the label of your selected option as the answer.
*A* P
(P: 1 nM, Q: 100 nM)

(1) Nc1cncc(-c2cc3c(N[C@H]4CC[C@H](N5CCOCC5)CC4)ncnc3cc2F)c1
(2) Cc1noc(C)c1-c1ccc2ncnc(N[C@H]3CC[C@H](N(C)C)CC3)c2c1
*Q* Pick one: 1 or 2 . Which one has the lower reported IC50? Provide the label of your selected option as the answer.
*A* 1
(1: 10 nM, 2: 333 nM)
